Catalogue of molecules with associated LC retention time
# ASSAY REMARKS: RP, Waters ACQUITY UPLC HSS T3, 150 × 2.1 mm, 1.8 µm, 45 °C, 0.6 mL/min, estimated dead time 0.55 min; A: water + 0.1% formic acid, pH 3; B: acetonitrile + 0.1% formic acid, pH 3; gradient (min/%B) 0/1 0.1/1 10/55 10.15/65 10.30/75 10.45/85 10.60/95 10.70/100 11/100 11.55/100 11.65/1 11.70/1 11.80/1 11.90/1 12/1 12.10/1 12.15/1 12.65/1
# SETTINGS: stereoisomer not certain

# MOLECULE, LC retention time / min
data = [
    ("CC(CCC(=O)NCC(=O)O)C1CCC2C3CCC4CC(OS(=O)(=O)O)CCC4(C)C3CCC12C (centres undefined) [Glycolithocholic acid-3-sulfate]", 10.2),
    ("CC(CC(=O)O)C1CCC2C3C(O)CC4CC(O)CCC4(C)C3CC(O)C12C (centres undefined)", 8.58),
    ("O=c1[nH]c(=O)c2[nH]c(=O)[nH]c2[nH]1", 1.12),
    ("O=C(O)Cc1ccccc1O [2-Hydroxyphenylacetic acid]", 4.11),
    ("NC(Cc1ccc(OS(=O)(=O)O)cc1)C(=O)O (centres undefined)", 1.5),
    ("CC(CO)C(=O)O (centres undefined) [3-Hydroxyisobutyric acid]", 1.59),
    ("CC(=O)NC(Cc1ccccc1)C(=O)O (centres undefined)", 4.66),
    ("COc1cc(C(O)C(=O)O)ccc1O (centres undefined)", 1.97),
    ("CC(O)C1CCC2C3CCC4CC(OC5OC(C(=O)O)C(O)C(O)C5O)CCC4(C)C3CCC12C (centres undefined) [Pregnanediol-3-glucuronide]", 9.23),
]

---

# ASSAY REMARKS: RP, Waters ACQUITY UPLC HSS T3, 150 × 2.1 mm, 1.8 µm, 45 °C, 0.6 mL/min, estimated dead time 0.55 min; A: water + 0.1% formic acid, pH 3; B: acetonitrile + 0.1% formic acid, pH 3; gradient (min/%B) 0/1 0.1/1 10/55 10.15/65 10.30/75 10.45/85 10.60/95 10.70/100 11/100 11.55/100 11.65/1 11.70/1 11.80/1 11.90/1 12/1 12.10/1 12.15/1 12.65/1
# SETTINGS: stereoisomer not certain
Outcome: True for LC retention time of at least 3 min; False for anything lower.

# COMPOUND, CLASS ASSIGNMENT
rows = [
    ("O=C(O)C(O)Cc1ccc(O)cc1 (stereo not given) [4-Hydroxyphenyllactic acid]", "False"),
    ("CC(=CC(=O)O)C(=O)O", "False"),
    ("O=C(O)Cc1cccc(O)c1 [3-Hydroxyphenylacetic acid]", "True"),
    ("Nc1ncnc2c1ncn2C1OC2COP(=O)(O)OC2C1O (stereo not given) [Adenosine 3',5'-cyclic monophosphate]", "False"),
    ("O=C(O)c1c(O)cccc1O [2,6-Dihydroxybenzoic acid]", "True"),
]

---

# ASSAY REMARKS: RP, Waters ACQUITY UPLC HSS T3, 150 × 2.1 mm, 1.8 µm, 45 °C, 0.6 mL/min, estimated dead time 0.55 min; A: water + 0.1% formic acid, pH 3; B: acetonitrile + 0.1% formic acid, pH 3; gradient (min/%B) 0/1 0.1/1 10/55 10.15/65 10.30/75 10.45/85 10.60/95 10.70/100 11/100 11.55/100 11.65/1 11.70/1 11.80/1 11.90/1 12/1 12.10/1 12.15/1 12.65/1
# SETTINGS: stereoisomer not certain
Values of LC retention time strictly less than 3 min map to Y, and values of at least 3 min map to N.

# COMPOUND, CLASS ASSIGNMENT
records = [
    ("O=c1ccn(C2OC(CO)C(O)C2O)c(=O)[nH]1 (centres undefined)", "Y"),
    ("O=C(O)/C=C/c1cccc(O)c1", "N"),
    ("Nc1c(C(=O)NC(CC(=O)O)C(=O)O)ncn1C1OC(CO)C(O)C1O (centres undefined) [Succinylaminoimidazole carboxamide riboside]", "Y"),
    ("Cc1ccc(OC2OC(C(=O)O)C(O)C(O)C2O)cc1 (centres undefined) [p-Cresol glucuronide]", "N"),
    ("CCc1ccc(OS(=O)(=O)O)cc1 [4-Ethylphenylsulfate]", "N"),
    ("CC(=O)NC(Cc1c[nH]c2ccccc12)C(=O)O (centres undefined)", "N"),
    ("O=C(O)C=C(CC(=O)O)C(=O)O [Cis-aconitic acid]", "Y"),
]
